- tested.target: T1, CXCL122 (constitutively dimeric CXCL12 variant, L36C/A65C) (Homo sapiens (Human), UniProt P48061 22-89, disulfide-locked dimer through the engineered cysteines)
- T1 construct: it is described as a variant of CXCL12 containing L36C/A65C mutations; also called CXCL12 locked dimer; LD
- T1 sequence (P48061 22-89 L57C/A86C limits assumed): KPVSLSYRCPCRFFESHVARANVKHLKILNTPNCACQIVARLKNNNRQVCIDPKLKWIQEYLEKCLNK
- assay.summary: ΔG = -RT ln Kd at 298 K from the NMR titration
- Method: Each peptide was acetylated and amidated to create uncharged N- and C-termini, respectively. […] For each titration, the chemical shift change of every residue was used to identify the binding site and calculate the interaction affinity. Total peptide additions differed for individual peptide titrations but ranged from 0-160 equivalencies. Spectra were processed using in-house scripts and chemical shift tracking was performed using CARA software. […]
Non-standard residues stand in square brackets, D forms with d. sY = N[C@@H](Cc1ccc(OS(=O)(=O)O)cc1)C(=O)O
value.type: ΔG

Solved entries:
Ac-SDNYTEE-NH2 (Synthetic CXCR4 heptapeptide, residues 9-15; also called unsulfated Tyr12 peptide) [9SDNYTEE15 (Tyr12 peptide)] | -4.74 kcal/mol
Ac-SGDYDSM-NH2 (Synthetic CXCR4 heptapeptide, residues 18-24; also called unsulfated Tyr21 peptide) [18SGDYDSM24 (Tyr21 peptide)] | -4.2 kcal/mol
Ac-SGD[sY]DSM-NH2 (SMILES CSCC[C@H](NC(=O)[C@H](CO)NC(=O)[C@H](CC(=O)O)NC(=O)[C@H](Cc1ccc(OS(=O)(=O)O)cc1)NC(=O)[C@H](CC(=O)O)NC(=O)CNC(=O)[C@H](CO)NC(C)=O)C(N)=O, Synthetic CXCR4 heptapeptide, residues 18-24; also called sulfated Tyr21 peptide) [18SGDsYDSM24 (sTyr21 sulfopeptide)] | -5.01 kcal/mol

Turning to the following binder.
Supply ΔG value. Item: GMMEGISIYTSDNYTEEMGSGDYDSMKEPAFREENANFNK (range 1-38; Unsulfated recombinant peptide; also called CXCR4 N-terminal domain; CXCR1-38) [CXCR41-38 (first 38 amino acids of CXCR4 preceded by a GlyMet dipeptide tag)]
-8.24 kcal/mol
